target: Mu-type opioid receptor (Homo sapiens) + Delta-type opioid receptor (Homo sapiens) (UniProt P35372+P41143); assay: inverse agonists of MOR-DOR heterodimerization, primary screen, cell-based, luminescence (AID 504357); conditions: cell-based MOR-DOR heterodimer luminescence, inverse agonism; at 9.3 µM
Sequence (P35372 whole entry, looked up): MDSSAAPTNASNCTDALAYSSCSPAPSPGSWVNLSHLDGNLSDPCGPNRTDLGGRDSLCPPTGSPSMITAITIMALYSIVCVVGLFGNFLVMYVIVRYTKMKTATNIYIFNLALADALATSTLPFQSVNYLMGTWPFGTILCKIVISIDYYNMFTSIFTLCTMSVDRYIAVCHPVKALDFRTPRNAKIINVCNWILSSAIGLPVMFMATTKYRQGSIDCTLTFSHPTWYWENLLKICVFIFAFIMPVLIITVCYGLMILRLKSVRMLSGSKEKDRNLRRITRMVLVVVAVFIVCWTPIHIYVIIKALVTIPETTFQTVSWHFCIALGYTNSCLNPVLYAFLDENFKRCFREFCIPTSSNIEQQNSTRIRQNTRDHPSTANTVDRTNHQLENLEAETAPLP
Sequence (P41143 whole entry, looked up): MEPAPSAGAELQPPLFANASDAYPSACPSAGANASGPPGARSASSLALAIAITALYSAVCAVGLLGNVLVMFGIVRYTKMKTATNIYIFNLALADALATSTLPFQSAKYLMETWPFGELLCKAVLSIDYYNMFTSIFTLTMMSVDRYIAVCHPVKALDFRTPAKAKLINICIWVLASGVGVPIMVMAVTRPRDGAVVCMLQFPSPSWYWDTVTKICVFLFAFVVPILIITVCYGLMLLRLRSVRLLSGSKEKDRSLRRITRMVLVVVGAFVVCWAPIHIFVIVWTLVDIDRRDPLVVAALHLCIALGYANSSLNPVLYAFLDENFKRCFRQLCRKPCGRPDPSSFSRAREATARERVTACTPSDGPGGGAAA
In all, about 340,000 compounds went through this assay and about 700 (0.21%) were called active. Cut-off read from the data, not from the text of the source: active = inhibition above about 22% (passing the limit was not always enough); inactive = the rest. This is one part of a sample in which actives are shown more often than they occur.
Labels: active, inactive

{"compound": "Clc1ccc2nc3c(c(-c4ccccc4)c2c1)CNCC3", "classLabel": "inactive"}
{"compound": "CNCC(O)c1cc(F)c(OCc2ccccc2)c(OCc2ccccc2)c1F (centres undefined)", "classLabel": "inactive"}
{"compound": "CN(C)S(=O)(=O)c1cc(C(=O)N2CCC(C(=O)O)(c3ccccc3)CC2)ccc1Cl", "classLabel": "inactive"}
{"compound": "CCC(=O)OC(Cc1ccccc1)(c1ccccc1)C(C)CN(C)C (centres undefined)", "classLabel": "inactive"}
{"compound": "CC(C)Nc1nc(Cl)nc(NC(C)C)n1", "classLabel": "inactive"}
{"compound": "CCOC(=O)c1c(N)n(Cc2ccccc2)c2nc3ccccc3nc12", "classLabel": "active"}
{"compound": "O=C(OCCN1CCOCC1)C1(c2ccccc2)CCCC1", "classLabel": "inactive"}
{"compound": "CC1=CC(=Cc2sc3ccccc3[n+]2C)C=C(C)O1", "classLabel": "active"}
{"compound": "CC(C)(C)c1ccc(OC(=O)N2CCCCC2)cc1", "classLabel": "inactive"}
